Reported values of viability at 28.5 h, 10 µM for individual entries
experiment: in vitro; conditions: human, hela cells, % viability
Quick note: unit goes after the number.

These recorded examples may help you get a feel for the data.
>>> endpointresult("CCn1cc(CN2CCCC(c3cc4cccnc4[nH]3)C2)c(C)n1 (stereo not shown) [CBK284701]")
"89.2%"
>>> endpointresult("CC(=O)N1CCc2ccc(NC(=O)c3cc(-c4ccc(C(=O)N5CCOCC5)cc4)cnc3N)cc21 [CBK160205]")
"89.9%"
>>> endpointresult("O=c1[nH]cccc1-c1noc(-c2cnccn2)n1 [CBK288538]")
"90%"
>>> endpointresult("Cc1ccc(Cl)cc1-n1cc(-c2ccc(F)cc2F)nn1 [CBK112995]")
"89.2%"

Param item = O=[N+]([O-])c1ccc(Sc2cccs2)c(C(F)(F)F)c1 [CBK002621] ; retrieve measured viability at 28.5 h, 10 µM.
105%

Now consider CCS(=O)(=O)N1CC2CCCC(O)(c3cccc(F)c3)C2C1 (stereo not shown) [CBK283108] and answer again.
99.3%

Input CCc1c(C)nc2c(C(=O)NC(CC)COC)cnn2c1C (stereo not shown) [CBK162133]
97.5%

Thanks! And O=C(CC1NCCNC1=O)Nc1ccc2c(c1)OCCO2 (stereo not shown) [CBK266837] ?
99.3%

Field entry: CCN1c2ccc(-c3cncn3CC(=O)NC(C)(C)C)cc2CC1C (stereo not shown) [CBK281815]
95.7%

// query: CCOc1cccc(N2C(=O)c3cc(Br)ccc3NC2c2ccc(OC)c(OC)c2)c1 (stereo not shown) [CBK074502]
88.4%

Now the compound Cc1ccc(-c2ccc(/C=C(\C#N)c3nc(-c4ccco4)cs3)o2)c([N+](=O)[O-])c1 [CBK266685]
96%

Please give the result for c1ccc(-c2nnc(-c3ccco3)c(-c3ccco3)n2)cc1 [CBK286196] too.
83.7%

* * *

assay: in vitro; settings: human, hela cells, % viability
Examples of compounds with documented viability at 28.5 h, 10 µM follow.
Give just the numeric value; % need not be written.

Consider the worked cases shown below.
>>> endpointresult("Cc1cc(C)n(S(=O)(=O)c2cc(C(=O)O)c(Cl)cc2Cl)n1")
86.3
>>> endpointresult("COc1ccc(C2(O)CCN(CC(O)c3ccc(C(C)(C)C)cc3)CC2)cc1 (stereo not shown)")
90.6
>>> endpointresult("CCn1c(C)cc(C(=O)N2CCN(c3nccc(OC)n3)CC2)c1C")
95.5
>>> endpointresult("CC(C)C(=O)Nc1ccc2ccc(-c3ccc(C(C)(C)C)cc3)nc2n1")
106
>>> endpointresult("OC1(c2cccnc2)CCCC2CN(Cc3cc(F)ccc3F)CC21 (stereo not shown)")
103
>>> endpointresult("CC(=O)c1ccc(NC(=O)N[C@H]2CCN3C(=O)[C@@H](Cc4ccccc4)NC(=O)[C@H]23)cc1")
85.9
>>> endpointresult("CSc1nc(N)c2nccnc2n1")
104
>>> endpointresult("O=S(=O)(c1ccc(Cl)cc1)N1CCN(S(=O)(=O)N2CCCCC2)CC1")
96.1
>>> endpointresult("COc1ccccc1CNc1ccc(S(N)(=O)=O)cc1")
92.7
>>> endpointresult("Cc1ccc(NS(=O)(=O)c2ccc(CCC(=O)N3CCc4ccccc4C3)cc2)cc1")
94.9

Here is another compound to look at.
viability at 28.5 h, 10 µM for `Cc1ccc(C(=O)NCCN2CCOCC2)c(N2CCN(C(=O)c3ccco3)CC2)n1` ?
101

* * *

# viability at 28.5 h, 10 µM listing for each entry below
assay: in vitro; conditions: human, hela cells, % viability

viability at 28.5 h, 10 µM lookup needed for `Cc1noc(C)c1C(=O)N[C@H]1CO[C@H]2[C@@H]1OC[C@H]2OCc1ccccc1` , thanks.
96.7%

Another: `O=C(O)c1cccnc1SCc1cc2c(cc1Cl)OCO2`
93.9%

What about CCOc1cccc(CN2CCCCC2c2[nH]ncc2C(N)=O)n1 (centres unmarked) ?
98.9%

Cool, now `CC(=O)NC[C@H]1C[C@@H]2CCN1C[C@@H]2c1cc(-c2ccco2)nc(C)n1`
102%

Cool, now `O=C(c1cc(-c2cccc(Br)c2)nc2ccccc12)N1CCN(C/C=C/c2ccccc2)CC1`
100%

Ok, now `Cc1nn(C)c(C)c1NC(=O)c1ncoc1-c1ccc(F)cc1`
87.7%

Follow-up entry: CCCc1nnc(SC(C)C(=O)N2CCCc3ccccc32)[nH]1 (centres unmarked)
90%

Can you check CN(c1cccc(C#N)c1)C1CCN(c2nc3c(cnn3C)c(=O)[nH]2)C1 (centres unmarked) next?
91.8%

What do we get for CC(CNCC1CCCO1)COc1cccc(Cl)c1 (centres unmarked) ?
96%

Next record, please: `CC(=O)N1Cc2cc(C)ccc2OC2(CCN(CC3CC3)CC2)C1`
95%

For `CSc1cc(-c2ccc(Cl)cc2)c(C(=O)O)s1` then?
80.3%

Same for `Cn1ccc(C(=O)N2CCC[C@H](C(=O)c3ccc(F)cc3)C2)n1`
88.3%

Also, CC(C)n1nccc1C(=O)N1CCCC(c2cc3cccnc3[nH]2)C1 (centres unmarked) please.
99.3%

Similarly, CCCn1ncc(C(=O)N2CCN(CC3CCCN(C)C3)CC2)c1C (centres unmarked) ?
89.1%

* * *

assay: in vitro; details: human, hela cells, % viability
Reported viability at 28.5 h, 10 µM is given for each of the following compounds.
Reply with just the number (in %).

Here are 3 compounds together with their reported answers.
>>> endpointresult("COc1cccc(CNc2ccc3c4c(cccc24)CC3)c1OC [CBK269688]")
92.5
>>> endpointresult("Nc1ncc(-c2ccc(O)cc2)nc1N1CCC[C@@H]1CO [CBK063669]")
91.7
>>> endpointresult("O=C(COc1cccc2ccccc12)N/N=C/c1ccco1 [CBK086853]")
103

Below: the item to evaluate.
Query (compound): CCCNc1nccnc1-c1cccc(Cl)c1Cl [CBK088892] ; field requested: viability at 28.5 h, 10 µM
93.8

* * *

assay: in vitro; settings: human, hela cells, % viability
property: viability at 28.5 h, 10 µM (%)
Number in %, nothing else.

>>> endpointresult("Cc1ccc(S(=O)(=O)Nc2sccc2C(=O)N2CCN(C)CC2)cc1")
89.3
>>> endpointresult("Cc1cc(I)ccc1NC(=O)CCC(=O)N/N=C/c1ccco1")
99.4
>>> endpointresult("Cc1ccc(CCn2nc(C)cc2C)cn1")
104
>>> endpointresult("CC(=O)NCCSc1cc(C(F)(F)F)ccn1")
107
>>> endpointresult("CCCCOc1ccc(-c2cn(CC(N)=O)cn2)cc1")
110
>>> endpointresult("COc1nc2ccn(CC(O)CO)c(=O)c2cc1C#N (stereo not drawn)")
97.1

Given the entry `COc1cccc(-c2cc3c(=S)[nH]ccn3n2)c1` , report its measured viability at 28.5 h, 10 µM.
88

Entry `O=C(Nc1ccc(C(=O)O)cc1)/C(=C\c1ccco1)NC(=O)c1ccccc1Cl` please
113

Cool, now `COC(=O)c1cn([C@H]2CO[C@H]3[C@@H]2OC[C@@H]3NS(=O)(=O)Cc2ccccc2)nn1`
86.9

# repeat for `Cc1cccc(NC(=O)NCc2ccccn2)c1`
92.3

Please answer likewise for Cn1nnnc1SCCNCc1ccc2c(c1)n(C)c(=O)n2C [CBK270080C]
99.8

Same thing, different molecule: Cc1ccccc1-c1nnc2n1CCCCC2 [CBK200076A]
108

Now the same for Cc1ccc(CN(Cc2ccco2)CC(O)COCc2ccco2)s1 (stereo not drawn)
96.7

* * *

experiment: in vitro; details: human, hela cells, % viability
property: viability at 28.5 h, 10 µM (%)
Numeric only. Scale: %

Take a look at these entries with their results.
>>> endpointresult("O=C(Cc1cccc2ccccc12)Nc1nnc(C2=COCCO2)o1 [CBK287414]")
86.6
>>> endpointresult("CCCCCNC(=O)C(Cc1ccc(O)c(C(=O)OCc2ccccc2)c1)NC(=O)OC(C)(C)C (stereo not drawn) [CBK001708]")
96.2

Item under review: COc1ccc(NC(=O)CCn2ccc3ccncc32)c(C)c1 [CBK282860] . Reported viability at 28.5 h, 10 µM?
109

* * *

viability at 28.5 h, 10 µM values, listed per item
experiment: in vitro; settings: human, hela cells, % viability
Write the value in % as a bare number.

Worked cases, answers included:
>>> endpointresult("CC(Cc1ccsc1)NS(=O)(=O)c1cccc(C(=O)N2CCCC2)c1 (centres unmarked) [CBK306923]")
85.8
>>> endpointresult("O=C(O)C1(c2ccccc2)CCN(S(=O)(=O)c2ccc(F)cc2)CC1 [CBK267571]")
92.9

Proceeding to the next molecule to report its viability at 28.5 h, 10 µM.
Need viability at 28.5 h, 10 µM, item CC(C)C(=O)N1CC2(CCN(Cc3nc4ccccc4[nH]3)CC2)c2ccccc21 [CBK126719]
110

Data origin, for the record: paper PMC12040169
